target.or.test.system: HGFR (Homo sapiens, UniProt P08581)
Construct: endogenous in cells
Sequence (P08581 25-1390): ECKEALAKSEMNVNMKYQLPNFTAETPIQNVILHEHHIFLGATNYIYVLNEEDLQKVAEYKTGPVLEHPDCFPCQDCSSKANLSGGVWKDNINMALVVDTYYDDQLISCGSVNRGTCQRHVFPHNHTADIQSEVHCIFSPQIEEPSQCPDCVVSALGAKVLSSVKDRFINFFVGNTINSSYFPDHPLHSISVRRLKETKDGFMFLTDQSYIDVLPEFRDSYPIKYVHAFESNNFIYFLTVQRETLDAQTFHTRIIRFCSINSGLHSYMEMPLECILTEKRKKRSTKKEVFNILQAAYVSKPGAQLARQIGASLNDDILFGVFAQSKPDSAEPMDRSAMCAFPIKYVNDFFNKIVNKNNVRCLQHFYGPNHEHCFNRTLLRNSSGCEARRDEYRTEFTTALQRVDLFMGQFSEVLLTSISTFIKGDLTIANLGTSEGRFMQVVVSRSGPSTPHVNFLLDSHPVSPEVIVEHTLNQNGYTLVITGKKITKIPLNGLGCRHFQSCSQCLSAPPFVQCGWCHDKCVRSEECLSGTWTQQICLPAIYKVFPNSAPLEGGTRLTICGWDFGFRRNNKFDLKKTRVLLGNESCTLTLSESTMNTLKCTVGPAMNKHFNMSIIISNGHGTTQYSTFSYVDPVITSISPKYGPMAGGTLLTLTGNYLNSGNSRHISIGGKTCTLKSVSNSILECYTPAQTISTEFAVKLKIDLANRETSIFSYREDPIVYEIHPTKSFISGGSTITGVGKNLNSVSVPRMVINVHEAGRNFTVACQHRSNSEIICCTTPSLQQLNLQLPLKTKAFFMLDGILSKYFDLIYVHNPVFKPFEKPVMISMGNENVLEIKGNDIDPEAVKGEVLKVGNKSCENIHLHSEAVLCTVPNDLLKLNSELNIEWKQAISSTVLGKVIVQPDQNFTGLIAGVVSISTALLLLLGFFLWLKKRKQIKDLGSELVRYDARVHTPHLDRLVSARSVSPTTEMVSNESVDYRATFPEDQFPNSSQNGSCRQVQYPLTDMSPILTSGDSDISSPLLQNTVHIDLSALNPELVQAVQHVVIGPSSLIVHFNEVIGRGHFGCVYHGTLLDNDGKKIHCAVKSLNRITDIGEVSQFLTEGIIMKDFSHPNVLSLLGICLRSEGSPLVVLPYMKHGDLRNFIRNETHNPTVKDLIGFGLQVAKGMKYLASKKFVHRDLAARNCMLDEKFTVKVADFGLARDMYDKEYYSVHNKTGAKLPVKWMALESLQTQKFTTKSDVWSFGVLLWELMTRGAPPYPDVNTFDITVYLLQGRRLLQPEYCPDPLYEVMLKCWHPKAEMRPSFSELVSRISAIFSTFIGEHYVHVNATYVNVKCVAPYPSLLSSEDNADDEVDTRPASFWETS
run.description: Inhibitory activity against the HGFR autophosphorylation using ELISA (MKN-45 cells)
run.conditions: 1 hr with test substance
Method: Human gastric cancer cells (MKN-45) were suspended in a 1% FBS-containing RPMI1640 medium (purchased from Sigma). […] Each well of the plate prepared in 2. was washed three times with 200 μl of PBS, and supplied with 150 μl of 3% BSA/PBS, followed by incubating at room temperature for 2 hrs. […] Each well was supplied with 70 μl of 1 M phosphoric acid, and using the Plate Reader MTP-500 (Corona Electric), the absorbance of the well was instantly determined at a measurement wavelength of 450 nm. […]
pIC50: −log10 of the molar value.
metric: pIC50

(I) CN(C)C1CCN(C(=O)Nc2cc(Oc3ccc(NC(=O)C4(C(=O)Nc5ccc(F)cc5)CC4)c(F)c3)ccn2)CC1
(II) CN(C)C1CN(C2CCN(C(=O)Nc3cc(Oc4ccc(NC(=O)C5(C(=O)Nc6ccc(F)cc6)CC5)cc4F)ccn3)CC2)C1
Input line: # argmax over pIC50 for candidates I and II Label of pick, please.
Output line: II
(II: 7.96, I: 7.41)

(A) O=C(Nc1cc(Oc2ccc(NC(=O)C3(C(=O)Nc4ccc(F)cc4)CC3)c(F)c2F)ccn1)N1CC(O)C1
(B) O=C(Nc1cc(Oc2ccc(NC(=O)C3(C(=O)Nc4ccc(F)cc4)CC3)c(F)c2)ccn1)N1CCCC1
(C) CN(C)CCN1CCN(C(=O)Nc2cc(Oc3ccc(NC(=O)C4(C(=O)Nc5ccc(F)cc5)CC4)c(F)c3)ccn2)CC1
Input line: Exam item: list the entries in increasing order of pIC50. The reply should contain the labels ordered as requested.
Output line: A, C, B

----------
target.or.test.system: His6-HGFR (HGFR cytoplasmic domain) (Homo sapiens)
pIC50: −log10 of the molar value.
metric: pIC50

In the examples that follow, each entry is paired with its recorded pIC50.
{"mol": "CN1CCN(C2CCN(C(=O)Nc3cc(Oc4ccc(NC(=O)C5(C(=O)Nc6ccc(F)cc6)CC5)cc4)ccn3)CC2)CC1", "pIC50": 7.30}
{"mol": "O=C(Nc1cc(Oc2ccc(NC(=O)C3(C(=O)Nc4ccc(F)cc4)CC3)cc2)ccn1)N1CCC1", "pIC50": 7.72}
{"mol": "CCN(CC)CCCN(C)C(=O)Nc1cc(Oc2ccc(NC(=O)C3(C(=O)Nc4ccc(F)cc4)CC3)cc2F)ccn1", "pIC50": 7.04}
{"mol": "CN1CCC(N2CCN(C(=O)Nc3cc(Oc4ccc(NC(=O)C5(C(=O)Nc6ccc(F)cc6)CC5)cc4)ccn3)CC2)CC1", "pIC50": 7.21}
{"mol": "CN(C)C1CCN(C(=O)Nc2cc(Oc3ccc(NC(=O)C4(C(=O)Nc5ccc(F)cc5)CC4)cc3F)ccn2)CC1", "pIC50": 7.35}
{"mol": "CN(C)CC1CCN(C(=O)Nc2cc(Oc3ccc(NC(=O)C4(C(=O)Nc5ccc(F)cc5)CC4)cc3F)ccn2)CC1", "pIC50": 7.22}

(A) CN1CCC(N(C)C(=O)Nc2cc(Oc3ccc(NC(=O)C4(C(=O)NCc5ccccc5)CC4)c(F)c3)ccn2)CC1
(B) O=C(Nc1cc(Oc2ccc(NC(=O)C3(C(=O)Nc4ccc(F)cc4)CC3)cc2F)ccn1)N1CCC(N2CCC2)CC1
Input line: # argmax over pIC50 for candidates A and B Label of pick, please.
Output line: B
(B: 7.34, A: 6.74)

----------
target.or.test.system: HGFR (Homo sapiens)
Construct: endogenous in cells
run.description: Inhibitory activity against the HGFR autophosphorylation using ELISA (MKN-45 cells)
run.conditions: 1 hr with test substance
pIC50: −log10 of the molar value.
metric: pIC50

In the examples that follow, each entry is paired with its recorded pIC50.
{"mol": "CN(C)[C@H]1CCN(C(=O)Nc2cc(Oc3ccc(NC(=O)C4(C(=O)Nc5ccc(F)cc5)CC4)c(F)c3)ccn2)C1", "pIC50": 7.72}
{"mol": "O=C(Nc1cc(Oc2ccc(NC(=O)C3(C(=O)Nc4ccc(F)cc4)CC3)c(F)c2)ccn1)N1CCOCC1", "pIC50": 7.68}
{"mol": "CN(C)C1CCN(C(=O)Nc2cc(Oc3cc(F)c(NC(=O)C4(C(=O)Nc5ccc(F)cc5)CC4)cc3F)ccn2)CC1", "pIC50": 7.92}
{"mol": "CN(C)CC1CN(C(=O)Nc2cc(Oc3cc(F)c(NC(=O)C4(C(=O)Nc5ccc(F)cc5)CC4)cc3F)ccn2)C1", "pIC50": 8.15}
{"mol": "O=C(Nc1cc(Oc2ccc(NC(=O)C3(C(=O)Nc4ccc(F)cc4)CC3)c(F)c2)ccn1)N1CCC(CN2CCCC2)CC1", "pIC50": 8.10}
{"mol": "CN1CCC(N(C)C(=O)Nc2cc(Oc3ccc(NC(=O)C4(C(=O)NC5CCCC5)CC4)c(F)c3)ccn2)CC1", "pIC50": 6.77}

(I) O=C(Nc1cc(Oc2ccc(NC(=O)C3(C(=O)Nc4ccc(F)cc4)CC3)cc2F)ncn1)N1CCC(N2CCC2)CC1
(II) CN(C)CC1CN(C(=O)Nc2cc(Oc3ccc(NC(=O)C4(C(=O)Nc5ccc(F)cc5)CC4)c(F)c3F)ccn2)C1
(III) CN(C)CCN1CCC(N(C)C(=O)Nc2cc(Oc3ccc(NC(=O)C4(C(=O)Nc5ccc(F)cc5)CC4)c(F)c3)ccn2)CC1
(IV) CN1CC(N2CCN(C(=O)Nc3cc(Oc4ccc(NC(=O)C5(C(=O)Nc6ccc(F)cc6)CC5)cc4F)ccn3)CC2)C1
Input line: Task field, ranking: reported pIC50, descending order. The reply should contain the labels ordered as requested.
Output line: III, IV, II, I

(a) CN1CCC(N(C)C(=O)Nc2cc(Oc3ccc(NC(=O)C4(C(=O)Nc5ccccc5F)CC4)c(F)c3)ccn2)CC1
(b) O=C(Nc1cc(Oc2ccc(NC(=O)C3(C(=O)Nc4ccc(F)cc4)CC3)cc2F)ccn1)N1CC[C@@H](O)C1
Input line: Field: lower recorded pIC50 (choose a or b ) Label of pick, please.
Output line: a
(a: 7.09, b: 7.96)

----------
target.or.test.system: HGFR (Homo sapiens, UniProt P08581)
Construct: endogenous in cells
run.description: Inhibitory activity against the HGFR autophosphorylation using ELISA (MKN-45 cells)
run.conditions: 1 hr with test substance
pIC50: −log10 of the molar value.
metric: pIC50

{"mol": "CN(C)CCN1CCN(C(=O)Nc2cc(Oc3ccc(NC(=O)C4(C(=O)Nc5ccc(F)cc5)CC4)cc3)ccn2)CC1", "target.or.test.system": "HGFR (Homo sapiens, UniProt P08581)", "metric": "pIC50", "experimental.value": 7.92}
{"mol": "O=C(Nc1cc(Oc2ccc(NC(=O)C3(C(=O)Nc4ccc(F)cc4)CC3)cc2)ccn1)N1CCC(CN2CCC2)CC1", "target.or.test.system": "HGFR (Homo sapiens, UniProt P08581)", "metric": "pIC50", "experimental.value": 7.49}

(A) CN1CCC(N(C)C(=O)Nc2cc(Oc3cc(F)c(NC(=O)C4(C(=O)Nc5ccc(F)cc5)CC4)cc3F)ncn2)CC1
(B) CN(C)[C@@H]1CCN(C(=O)Nc2cc(Oc3ccc(NC(=O)C4(C(=O)Nc5ccccc5)CC4)c(F)c3)ccn2)C1
(C) O=C(Nc1cc(Oc2cc(F)c(NC(=O)C3(C(=O)Nc4ccc(F)cc4)CC3)cc2F)ccn1)N1CC(CO)C1
(D) CCN(CC)CCCN(C)C(=O)Nc1cc(Oc2ccc(NC(=O)C3(C(=O)Nc4ccc(F)cc4)CC3)cc2F)ccn1
(E) O=C(Nc1cc(Oc2ccc(NC(=O)C3(C(=O)Nc4ccc(F)cc4)CC3)cc2)ccn1)N1CCCC1
Input line: Exam item: list the entries in increasing order of pIC50. The reply should contain the labels ordered as requested.
Output line: D, E, B, A, C
(D: 7.10, E: 7.43, B: 7.80, A: 8.03, C: 8.38)

----------
target.or.test.system: His6-HGFR (HGFR cytoplasmic domain) (Homo sapiens, UniProt P08581)
Construct: made in house; host or cells: Sf9 insect cells (Spodoptera frugiperda), baculovirus, pFastBac-HT vector
Sequence (P08581 956-1390 limits assumed): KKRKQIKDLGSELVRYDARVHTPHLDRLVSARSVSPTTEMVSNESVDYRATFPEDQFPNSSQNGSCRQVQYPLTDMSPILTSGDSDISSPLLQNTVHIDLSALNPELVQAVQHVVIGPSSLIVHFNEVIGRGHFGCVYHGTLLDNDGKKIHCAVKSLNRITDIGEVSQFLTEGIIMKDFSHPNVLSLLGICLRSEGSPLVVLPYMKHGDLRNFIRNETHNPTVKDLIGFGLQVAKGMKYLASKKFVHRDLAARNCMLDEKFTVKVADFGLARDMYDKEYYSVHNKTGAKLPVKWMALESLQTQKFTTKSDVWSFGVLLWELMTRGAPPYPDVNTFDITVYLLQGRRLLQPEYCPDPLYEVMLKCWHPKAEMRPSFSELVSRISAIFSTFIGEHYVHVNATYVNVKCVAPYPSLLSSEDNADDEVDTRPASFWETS
run.description: Inhibitory activity against HGFR tyrosine kinase activity (HTRF)
Assay type: biochemical
run.conditions: biotin-poly(GT), ATP, 30° C. 10 min
pIC50: −log10 of the molar value.
metric: pIC50

{"mol": "CN(C)[C@@H]1CCN(C(=O)Nc2cc(Oc3ccc(NC(=O)C4(C(=O)Nc5ccccc5)CC4)c(F)c3)ccn2)C1", "metric": "pIC50", "experimental.value": 7.12}

(1) CN(C)CCN1CCN(C(=O)Nc2cc(Oc3ccc(NC(=O)C4(C(=O)Nc5ccc(F)cc5)CC4)c(F)c3)ccn2)CC1
(2) O=C(Nc1cc(Oc2ccc(NC(=O)C3(C(=O)Nc4ccc(F)cc4)CC3)c(F)c2)ccn1)N1CC(CO)C1
Input line: Field: lower recorded pIC50 (choose 1 or 2 ) Label of pick, please.
Output line: 1

(P) O=C(Nc1cc(Oc2ccc(NC(=O)C3(C(=O)Nc4ccc(F)cc4)CC3)cc2)ccn1)N1CCOCC1
(Q) CN1CCC(N(C)C(=O)Nc2cc(Oc3ccc(NC(=O)C4(C(=O)Nc5ccc(F)cc5F)CC4)c(F)c3)ccn2)CC1
(R) O=C(Nc1cc(Oc2ccc(NC(=O)C3(C(=O)Nc4ccc(F)cc4)CC3)cc2F)ccn1)N1CC[C@@H](O)C1
Input line: Exam item: list the entries in increasing order of pIC50. The reply should contain the labels ordered as requested.
Output line: Q, P, R
(Q: 6.96, P: 7.64, R: 7.92)
